target.entity: G protein-coupled receptor 88 (Homo sapiens, UniProt Q9GZN0)
Sequence (Q9GZN0 whole entry): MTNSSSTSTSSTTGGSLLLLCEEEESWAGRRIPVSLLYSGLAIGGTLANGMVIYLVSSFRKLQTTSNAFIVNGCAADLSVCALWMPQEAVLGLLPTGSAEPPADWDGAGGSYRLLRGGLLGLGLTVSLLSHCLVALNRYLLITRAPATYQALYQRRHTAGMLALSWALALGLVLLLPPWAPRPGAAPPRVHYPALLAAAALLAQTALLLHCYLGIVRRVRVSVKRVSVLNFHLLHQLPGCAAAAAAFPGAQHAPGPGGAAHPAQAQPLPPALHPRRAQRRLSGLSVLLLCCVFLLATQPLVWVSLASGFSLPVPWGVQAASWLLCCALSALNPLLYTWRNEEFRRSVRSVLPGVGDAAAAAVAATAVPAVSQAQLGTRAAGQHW
experimental.protocol: Agonist activity at GPR88 (unknown origin) transfected into cells assessed as cAMP accumulation by HTRF assay
pEC50: −log10 of the molar value.
endpoint.label: pEC50

Reference set, count: 2
CC[C@H](C)[C@H](N)CN(C(=O)[C@@H]1C[C@H]1c1ccccc1)c1ccc(-c2ccc(CN(C)C)cc2)cc1: 6.34
CO[C@H](C)[C@H](N)CN(C(=O)[C@@H]1C[C@H]1c1ccccc1)c1ccc(-c2ccccc2)cc1: 9.17

A = CCC(CC)C(N)CCN(C(=O)[C@@H]1C[C@H]1c1ccccc1)c1ccc(-c2ccccc2)cc1 (some centres not stated)
B = CC(C)C[C@H](N)CN(C(=O)[C@@H]1C[C@H]1c1ccccc1)c1ccc(-c2ccsc2)cc1
C = CC[C@H](C)[C@H](N)CN(C(=O)[C@@H]1C[C@H]1c1ncccn1)c1ccc(-c2ccccc2)cc1
D = CC[C@H](C)[C@H](N)CN(C(=O)[C@@H]1C[C@H]1c1ccoc1)c1ccc(-c2ccccc2)cc1
E = NC1(CN(C(=O)[C@@H]2C[C@H]2c2ccccc2)c2ccc(-c3ccccc3)cc2)CCCC1
# rank_down: sort by pEC50, max first Note for the reader: the ranking is given by listing the labels in the order requested. E, A, C, D, B
(E: 9.24, A: 8.70, C: 6.89, D: 6.24, B: 5.92)

1 = N[C@@H](CC1CCCCC1)CN(C(=O)[C@@H]1C[C@H]1c1ccccc1)c1ccc(-c2ccccc2)cc1
2 = CC(C)C[C@H](N)CN(C(=O)[C@@H]1C[C@H]1c1ccccc1)c1ccc(-c2ccc(Cl)cc2)cc1
3 = CC(C)C[C@H](N)CN(C(=O)[C@@H]1C[C@H]1c1ccccc1)c1ccc(-c2cccs2)cc1
4 = CC(C)C[C@H](N)CN(C(=O)[C@@H]1C[C@H]1c1ccccc1)c1cccc(-c2ccccc2)c1
Form: Sort by [pEC50] Order [ ascending ] Note for the reader: the ranking is given by listing the labels in the order requested. 4, 3, 2, 1
(4: 4.64, 3: 5.82, 2: 6.19, 1: 8.77)

a = CN[C@@H](CC(C)C)CN(C(=O)[C@@H]1C[C@H]1c1ccccc1)c1ccc(-c2ccccc2)cc1
b = N[C@H](CN(C(=O)[C@@H]1C[C@H]1c1ccccc1)c1ccc(-c2ccccc2)cc1)C1CCCCC1
Which value of pEC50 is greater, the one for a or the one for b ? // return label of chosen record b

a = CC(C)(N)CN(C(=O)[C@@H]1C[C@H]1c1ccccc1)c1ccc(-c2ccccc2)cc1
b = O=C([C@@H]1C[C@H]1c1ccccc1)N(CCNCC1CCCC1)c1ccc(-c2ccccc2)cc1
c = CC(C)C[C@H](N)CN(C(=O)[C@@H]1C[C@H]1c1ccccc1)c1ccc(-c2ccccc2Cl)cc1
# rank_down: sort by pEC50, max first Note for the reader: the ranking is given by listing the labels in the order requested. a, b, c
(a: 8.85, b: 8.60, c: 5.42)
